assay: Single ascending dose (SAD) study in healthy volunteers: pharmacokinetics of d-methadone; conditions: both, human, in vivo, 5 mg, AUC0-24, SAD 5 mg; mean

| compound.smiles | value.units | AUC(0-t) |
| --- | --- | --- |
| CCC(=O)C(C[C@H](C)N(C)C)(c1ccccc1)c1ccccc1 | ng·h/mL | 675 |

====

experiment: Single ascending dose (SAD) study in healthy volunteers: pharmacokinetics of d-methadone; conditions: both, human, in vivo, 100 mg, AUC0-last, SAD 100 mg; mean
quantity.measured: AUC(0-t) (ng·h/mL)

| compound.smiles | quantity.measured | recorded.number |
| --- | --- | --- |
| CCC(=O)C(C[C@H](C)N(C)C)(c1ccccc1)c1ccccc1 | AUC(0-t) | 29700 |

====

experiment: Single ascending dose (SAD) study in healthy volunteers: pharmacokinetics of d-methadone; conditions: both, human, in vivo, 200 mg, Cmax, SAD 200 mg; n=1

| compound.smiles | Cmax |
| --- | --- |
| CCC(=O)C(C[C@H](C)N(C)C)(c1ccccc1)c1ccccc1 | 1.53 µg/mL |

====

molecular target: NMDA (antagonist radioligand); experiment: Binding assay NMDA (antagonist radioligand); settings: Study 1; reference compound
pKi: −log10 of the molar value.
quantity.measured: pKi

| compound.smiles | recorded.number |
| --- | --- |
| O=C(O)[C@@H]1C[C@H](CP(=O)(O)O)CCN1 | 5.96 |

====

experiment: Single ascending dose (SAD) study in healthy volunteers: pharmacokinetics of d-methadone; conditions: both, human, in vivo, 60 mg

| compound.smiles | AUC(0-inf) [ng·h/mL] |
| --- | --- |
| CCC(=O)C(C[C@H](C)N(C)C)(c1ccccc1)c1ccccc1 | 14100 |

====

assay: Single ascending dose (SAD) study in healthy volunteers: pharmacokinetics of d-methadone; conditions: both, human, in vivo, 150 mg
quantity.measured: AUC(0-inf) (ng·h/mL)

| compound.smiles | quantity.measured | value.units | recorded.number |
| --- | --- | --- | --- |
| CCC(=O)C(C[C@H](C)N(C)C)(c1ccccc1)c1ccccc1 | AUC(0-inf) | ng·h/mL | 32600 |

====

experiment: Single ascending dose (SAD) study in healthy volunteers: pharmacokinetics of d-methadone; conditions: both, human, in vivo, 200 mg, AUC0-last, SAD 200 mg; n=1

| compound.smiles | AUC(0-t) / ng·h/mL |
| --- | --- |
| CCC(=O)C(C[C@H](C)N(C)C)(c1ccccc1)c1ccccc1 | 67700 |

====

experiment: Single ascending dose (SAD) study in healthy volunteers: pharmacokinetics of d-methadone; conditions: both, human, in vivo, 5 mg, AUC0-last, SAD 5 mg; mean
quantity.measured: AUC(0-t) (ng·h/mL)

| compound.smiles | value.units | recorded.number |
| --- | --- | --- |
| CCC(=O)C(C[C@H](C)N(C)C)(c1ccccc1)c1ccccc1 | ng·h/mL | 1250 |

====

test: clinical; conditions: both, human, in vivo, 25 mg

| compound | value.units | AUC(0-inf) |
| --- | --- | --- |
| CCC(=O)C(C[C@H](C)N(C)C)(c1ccccc1)c1ccccc1 [d-methadone] | ng·h/mL | 13000 |

====

test: Single ascending dose (SAD) study in healthy volunteers: pharmacokinetics of d-methadone; details: both, human, in vivo, 200 mg, AUC0-24, SAD 200 mg; n=1
quantity.measured: AUC(0-t) (ng·h/mL)

| molecule | value.units | recorded.number |
| --- | --- | --- |
| CCC(=O)C(C[C@H](C)N(C)C)(c1ccccc1)c1ccccc1 [d-methadone] | ng·h/mL | 20700 |

====

assay: Single ascending dose (SAD) study in healthy volunteers: pharmacokinetics of d-methadone; details: both, human, in vivo, 20 mg, AUC0-last, SAD 20 mg; mean

| compound.smiles | value.units | AUC(0-t) |
| --- | --- | --- |
| CCC(=O)C(C[C@H](C)N(C)C)(c1ccccc1)c1ccccc1 | ng·h/mL | 4620 |

====

test: Single ascending dose (SAD) study in healthy volunteers: pharmacokinetics of d-methadone; conditions: both, human, in vivo, 20 mg, Cmax, SAD 20 mg; mean
quantity.measured: Cmax (ng/mL)

| compound | quantity.measured | recorded.number |
| --- | --- | --- |
| CCC(=O)C(C[C@H](C)N(C)C)(c1ccccc1)c1ccccc1 [d-methadone] | Cmax | 163 |

====

assay: Single ascending dose (SAD) study in healthy volunteers: pharmacokinetics of d-methadone; settings: both, human, in vivo, 100 mg

| compound.smiles | AUC(0-inf) |
| --- | --- |
| CCC(=O)C(C[C@H](C)N(C)C)(c1ccccc1)c1ccccc1 | 31100 ng·h/mL |

====

assay: Single ascending dose (SAD) study in healthy volunteers: pharmacokinetics of d-methadone; details: both, human, in vivo, 20 mg, AUC0-24, SAD 20 mg; mean

| compound.smiles | AUC(0-t) |
| --- | --- |
| CCC(=O)C(C[C@H](C)N(C)C)(c1ccccc1)c1ccccc1 | 2310 ng·h/mL |

====

experiment: clinical; conditions: both, human, in vivo, 50 mg
quantity.measured: Cmax (ng/mL)

| compound.smiles | value.units | recorded.number |
| --- | --- | --- |
| CCC(=O)C(C[C@H](C)N(C)C)(c1ccccc1)c1ccccc1 | ng/mL | 587 |

====

Measured pIC50 accompanies every entry in the list below.
biological target: norepinephrine transporter (NET) (Rattus norvegicus, UniProt Q63380); construct: tissue Eurofins Cerep; host or cells: rat hypothalamus synaptosomes (own knowledge of the vendor's assay); assay: Norepinephrine uptake assay; type: biochemical
Sequence (Q63380 1-617): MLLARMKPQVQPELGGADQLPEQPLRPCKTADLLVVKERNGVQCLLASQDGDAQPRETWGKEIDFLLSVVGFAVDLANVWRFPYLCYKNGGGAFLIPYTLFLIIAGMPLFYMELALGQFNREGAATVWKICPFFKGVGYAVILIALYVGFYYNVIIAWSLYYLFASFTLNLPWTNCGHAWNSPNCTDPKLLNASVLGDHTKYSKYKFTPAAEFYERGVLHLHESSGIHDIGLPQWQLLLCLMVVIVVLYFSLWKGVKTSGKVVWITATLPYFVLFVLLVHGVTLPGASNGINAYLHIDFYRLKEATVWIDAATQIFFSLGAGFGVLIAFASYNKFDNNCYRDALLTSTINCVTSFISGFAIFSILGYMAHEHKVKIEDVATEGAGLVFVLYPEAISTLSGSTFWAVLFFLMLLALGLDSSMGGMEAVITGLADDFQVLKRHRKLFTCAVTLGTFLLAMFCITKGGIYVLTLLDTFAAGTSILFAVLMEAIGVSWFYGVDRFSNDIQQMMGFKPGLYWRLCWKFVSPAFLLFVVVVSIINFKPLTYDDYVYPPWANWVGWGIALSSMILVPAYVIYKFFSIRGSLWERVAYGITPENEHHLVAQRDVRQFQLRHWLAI
pIC50: −log10 of the molar value. Where a name gives a salt, the structure may show the parent alone.
quantity.measured: pIC50

| compound | recorded.number |
| --- | --- |
| [2H]C([2H])([2H])CC(=O)C(C[C@H](C)N(C([2H])([2H])[2H])C([2H])([2H])[2H])(c1ccccc1)c1ccccc1 | 5.14 |
| CC[C@@H](c1cccc(O)c1)[C@@H](C)CN(C)C [tapentadol hydrochloride, reference compound] | 6.59 |
| CCC(=O)C(C[C@H](C)N(C)C)(c1ccccc1)c1ccccc1 [d-methadone] | 5.09 |

====

target: serotonin transporter (SERT or 5-HT) (Rattus norvegicus); assay: biochemical
Sequence (P31652 whole entry): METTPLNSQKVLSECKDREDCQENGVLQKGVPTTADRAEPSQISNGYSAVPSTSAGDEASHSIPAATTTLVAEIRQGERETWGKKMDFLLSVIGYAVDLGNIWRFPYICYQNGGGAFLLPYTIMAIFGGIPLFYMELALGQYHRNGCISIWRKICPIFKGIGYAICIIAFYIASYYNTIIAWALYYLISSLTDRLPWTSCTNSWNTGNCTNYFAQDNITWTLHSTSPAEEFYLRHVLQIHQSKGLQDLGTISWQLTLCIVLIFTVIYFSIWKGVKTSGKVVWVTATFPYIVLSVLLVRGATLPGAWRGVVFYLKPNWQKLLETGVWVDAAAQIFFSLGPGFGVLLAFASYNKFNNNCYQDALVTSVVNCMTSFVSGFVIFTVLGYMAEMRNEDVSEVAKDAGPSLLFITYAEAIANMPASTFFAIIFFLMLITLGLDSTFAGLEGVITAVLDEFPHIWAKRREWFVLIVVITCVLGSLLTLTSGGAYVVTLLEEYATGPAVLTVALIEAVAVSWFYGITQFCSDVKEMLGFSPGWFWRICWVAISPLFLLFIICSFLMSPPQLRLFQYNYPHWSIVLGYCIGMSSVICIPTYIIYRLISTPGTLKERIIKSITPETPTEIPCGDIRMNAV
Where a name gives a salt, the structure may show the parent alone.

| compound | IC50, nM |
| --- | --- |
| CCC(=O)C(C[C@H](C)N(C)C)(c1ccccc1)c1ccccc1 | 120 |
| [2H]C([2H])([2H])CC(=O)C(C[C@H](C)N(C([2H])([2H])[2H])C([2H])([2H])[2H])(c1ccccc1)c1ccccc1 | 1100 |
| CC[C@@H](c1cccc(O)c1)[C@@H](C)CN(C)C [tapentadol hydrochloride, reference compound] | 850 |

====

assay: Single ascending dose (SAD) study in healthy volunteers: pharmacokinetics of d-methadone; details: both, human, in vivo, 60 mg, AUC0-last, SAD 60 mg; mean

| compound.smiles | AUC(0-t) (ng·h/mL) |
| --- | --- |
| CCC(=O)C(C[C@H](C)N(C)C)(c1ccccc1)c1ccccc1 | 13600 |

====

assay: clinical; conditions: both, human, in vivo, 25 mg, Tmax

| compound.smiles | value.units | Tmax |
| --- | --- | --- |
| CCC(=O)C(C[C@H](C)N(C)C)(c1ccccc1)c1ccccc1 | h | 2.35 |

====

experiment: Single ascending dose (SAD) study in healthy volunteers: pharmacokinetics of d-methadone; conditions: both, human, in vivo, 150 mg, Cmax, SAD 150 mg; mean

| compound.smiles | Cmax, µg/mL |
| --- | --- |
| CCC(=O)C(C[C@H](C)N(C)C)(c1ccccc1)c1ccccc1 | 1.06 |

====

assay: clinical; conditions: both, human, in vivo, 75 mg

| compound.smiles | value.units | Cmax |
| --- | --- | --- |
| CCC(=O)C(C[C@H](C)N(C)C)(c1ccccc1)c1ccccc1 | ng/mL | 563 |

====

assay: Single ascending dose (SAD) study in healthy volunteers: pharmacokinetics of d-methadone; conditions: both, human, in vivo, 150 mg, AUC0-24, SAD 150 mg; mean

| compound.smiles | value.units | AUC(0-t) |
| --- | --- | --- |
| CCC(=O)C(C[C@H](C)N(C)C)(c1ccccc1)c1ccccc1 | ng·h/mL | 14600 |

====

assay: Single ascending dose (SAD) study in healthy volunteers: pharmacokinetics of d-methadone; settings: both, human, in vivo, 5 mg, Cmax, median, SAD 5 mg

| compound | Cmax |
| --- | --- |
| CCC(=O)C(C[C@H](C)N(C)C)(c1ccccc1)c1ccccc1 [d-methadone] | 0.0484 µg/mL |

====

assay: Single ascending dose (SAD) study in healthy volunteers: pharmacokinetics of d-methadone; details: both, human, in vivo, 20 mg

| molecule | AUC(0-inf) (ng·h/mL) |
| --- | --- |
| CCC(=O)C(C[C@H](C)N(C)C)(c1ccccc1)c1ccccc1 [d-methadone] | 6230 |

These data points were gathered from patent US20180214395A1.
